The values you see were collected from ChEMBL document CHEMBL3632546.

MEASUREMENT TARGET: Renin (Homo sapiens)
Sequence (P00797 whole entry): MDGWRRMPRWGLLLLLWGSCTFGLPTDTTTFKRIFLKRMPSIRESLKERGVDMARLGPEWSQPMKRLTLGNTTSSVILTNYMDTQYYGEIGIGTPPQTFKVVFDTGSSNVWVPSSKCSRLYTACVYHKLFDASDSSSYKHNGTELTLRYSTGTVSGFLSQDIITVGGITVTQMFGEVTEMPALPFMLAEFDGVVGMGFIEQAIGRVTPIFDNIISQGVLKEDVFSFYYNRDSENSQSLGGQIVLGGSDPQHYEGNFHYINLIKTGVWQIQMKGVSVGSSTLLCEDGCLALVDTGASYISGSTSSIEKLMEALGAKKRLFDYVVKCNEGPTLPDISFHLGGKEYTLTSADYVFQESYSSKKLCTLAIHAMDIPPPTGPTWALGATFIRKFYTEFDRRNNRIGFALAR
ASSAY OVERVIEW: Inhibition of human recombinant renin preincubated for 30 mins followed by substrate addition measured after 15 mins by fluorescence analysis
Under this convention, met denotes IC50 strictly below 0.02 µM and not met denotes IC50 at or above 0.02 µM.

Look over these answered cases.
# check: IC50 < 0.02 µM for COCCCOc1cc(C[C@@H](C[C@H](N)[C@@H](O)C[C@H](C(=O)NCCc2ccccc2Cl)C(C)C)C(C)C)ccc1OC
not met

Dear reviewer, please state whether COCCCOc1cc(C[C@@H](C[C@H](N)[C@@H](O)C[C@H](C(=O)NCC(C)(C)Cc2ccc3ccccc3c2)C(C)C)C(C)C)ccc1OC has IC50 strictly beneath 0.02 µM.
met

Others:
Strictly below 0.02 µM: is that where IC50 of COCCCOc1cc(C[C@@H](C[C@H](N)[C@@H](O)C[C@H](C(=O)N[C@H](C)c2ccc(Br)cc2)C(C)C)C(C)C)ccc1OC sits?
not met

Criterion: IC50 strictly below 0.02 µM. Is it met by COCCCOc1cc(C[C@@H](C[C@H](N)[C@@H](O)C[C@H](C(=O)NCC(C)(C)CCOc2ccccc2)C(C)C)C(C)C)ccc1OC ?
met

Determine whether this compound shows IC50 lower than 0.02 µM (ties excluded): COCCCOc1cc(C[C@@H](C[C@H](N)[C@@H](O)C[C@H](C(=O)N[C@@H](C)c2ccc(Br)cc2)C(C)C)C(C)C)ccc1OC
not met

Take the compound COCCCOc1cc(C[C@@H](C[C@H](N)[C@@H](O)C[C@H](C(=O)NCC(C)(C)Cn2cc(CN3CCOCC3)nn2)C(C)C)C(C)C)ccc1OC and say whether its IC50 is less than 0.02 µM.
met

For this compound, is IC50 lower than 0.02 µM? CCCCCCc1cn(CC(C)(C)CNC(=O)[C@@H](C[C@H](O)[C@@H](N)C[C@H](Cc2ccc(OC)c(OCCCOC)c2)C(C)C)C(C)C)nn1
met

Please let me know if COCCCOc1cc(C[C@@H](C[C@H](N)[C@@H](O)C[C@H](C(=O)NCC(C)(C)Cc2ccccc2)C(C)C)C(C)C)ccc1OC shows IC50 below 0.02 µM.
not met

Field: below-cutoff. Rule: recorded IC50 strictly less than 0.02 µM. Subject: COCCCOc1cc(C[C@@H](C[C@H](N)[C@@H](O)C[C@H](C(=O)N[C@H](C)c2ccc(Cl)cc2)C(C)C)C(C)C)ccc1OC
not met

Answer whether the compound COCCCOc1cc(C[C@@H](C[C@H](N)[C@@H](O)C[C@H](C(=O)NCCc2cccc(OC)c2)C(C)C)C(C)C)ccc1OC has IC50 strictly less than 0.02 µM
met
